The following molecules are shown together with reported Ki values.
SYSTEM UNDER TEST: Cyclin Dependent Kinase 4/Cyclin D3 (CDK4-cycD3) (Homo sapiens)
Construct: purchased Carna Biosciences 04-105
Sequence (P11802 whole entry): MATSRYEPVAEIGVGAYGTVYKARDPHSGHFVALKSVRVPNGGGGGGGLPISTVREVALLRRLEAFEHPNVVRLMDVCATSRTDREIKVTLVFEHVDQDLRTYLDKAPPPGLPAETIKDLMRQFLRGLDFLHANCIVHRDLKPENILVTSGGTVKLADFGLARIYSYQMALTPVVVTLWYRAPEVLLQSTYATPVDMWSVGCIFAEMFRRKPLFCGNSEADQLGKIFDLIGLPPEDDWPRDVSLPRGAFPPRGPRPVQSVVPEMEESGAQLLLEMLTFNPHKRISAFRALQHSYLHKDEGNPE
Sequence (P30281 whole entry partner): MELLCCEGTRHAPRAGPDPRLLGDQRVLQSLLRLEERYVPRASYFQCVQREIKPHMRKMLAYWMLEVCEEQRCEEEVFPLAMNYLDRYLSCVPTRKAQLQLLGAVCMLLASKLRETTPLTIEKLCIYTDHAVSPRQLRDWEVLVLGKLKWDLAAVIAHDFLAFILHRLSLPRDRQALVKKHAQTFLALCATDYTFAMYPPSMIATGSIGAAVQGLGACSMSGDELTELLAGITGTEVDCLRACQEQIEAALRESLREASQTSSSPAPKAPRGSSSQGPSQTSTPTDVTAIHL
METHOD DESCRIPTION: CDK4-cycD3 TR-FRET (LANCE) enzyme assay
Type: biochemical
TEST CONDITIONS: Table O, enzymatic assay
Note: state the figure and append the unit.

These solved cases illustrate the format of a correct answer.
INSERT INTO results (molecule, measured_metric, assay_result) VALUES
  ('Cc1ncccc1Nc1cc([C@H]2CC[C@@H](OC(=O)NC3CC(O)C3)C2)[nH]n1 (stereo partly shown)', 'Ki', '1200 nM'),
  ('Cc1ncccc1Nc1cc([C@H]2CC[C@@H](OC(=O)N[C@@H]3CCN(C)C3)C2)[nH]n1', 'Ki', '6500 nM'),
  ('Cc1ncccc1Nc1cc([C@H]2CC[C@@H](OC(=O)NC(C)(C)C)C2)[nH]n1', 'Ki', '34 nM');

Ask: For `CC(C)NC(=O)O[C@@H]1CC[C@H](c2cc(Nc3ccnc(N)n3)n[nH]2)C1` , write its Ki.
Result: 150 nM

###

SYSTEM UNDER TEST: Cyclin Dependent Kinase 2/Cyclin E1 (CDK2-cycE1) (Homo sapiens, UniProt P24941)
Construct: purchased ProQinase 0050-0055-1
METHOD DESCRIPTION: CDK2-cycE1 TR-FRET (LANCE) enzyme assay
Format: biochemical
TEST CONDITIONS: Table O, fold selectivity, enzymatic CDK1 Ki over CDK2 Ki
Answer F if FS CDK1/CDK2 is under 70, and T if it is 70 or more.

// below: answered molecules
INSERT INTO results (molecule, system_under_test, class_name) VALUES
  ('Cn1cc(Nc2cc([C@H]3CC[C@@H](OC(=O)NC(C)(C)C)C3)[nH]n2)ccc1=O', 'Cyclin Dependent Kinase 2/Cyclin E1 (CDK2-cycE1) (Homo sapiens, UniProt P24941)', 'F'),
  ('CC(C)NC(=O)O[C@@H]1CC[C@H](c2cc(Nc3ccc(-n4ccnc4)nc3)n[nH]2)C1', 'Cyclin Dependent Kinase 2/Cyclin E1 (CDK2-cycE1) (Homo sapiens, UniProt P24941)', 'F'),
  ('CC(C)NC(=O)O[C@@H]1CC[C@H](c2cc(Nc3ccc(-n4ccnc4)cn3)n[nH]2)C1', 'Cyclin Dependent Kinase 2/Cyclin E1 (CDK2-cycE1) (Homo sapiens, UniProt P24941)', 'T'),
  ('CC(C)(C)NC(=O)O[C@@H]1CC[C@H](c2cc(Nc3ccnc(CO)c3)n[nH]2)C1 [Example 10C]', 'Cyclin Dependent Kinase 2/Cyclin E1 (CDK2-cycE1) (Homo sapiens, UniProt P24941)', 'F'),
  ('CNC(=O)c1ccc(Nc2cc([C@H]3CC[C@@H](OC(=O)NC(C)(C)C)C3)[nH]n2)nc1', 'Cyclin Dependent Kinase 2/Cyclin E1 (CDK2-cycE1) (Homo sapiens, UniProt P24941)', 'F');

Ask: Record `CNC(=O)c1cc(C)c(Nc2cc([C@H]3CC[C@@H](OC(=O)NC45CC(C4)C5)C3)[nH]n2)cn1` ; criterion: FS CDK1/CDK2 no lower than 70. Met?
Result: T

Ask: Record `CC(C)NC(=O)O[C@@H]1CC[C@H](c2cc(Nc3cc(=O)[nH]cn3)n[nH]2)C1` ; criterion: FS CDK1/CDK2 no lower than 70. Met?
Result: T

Ask: Record `Cc1ccncc1Nc1cc([C@H]2CC[C@@H](OC(=O)NC(C)(C)C)C2)[nH]n1` ; criterion: FS CDK1/CDK2 no lower than 70. Met?
Result: T

Ask: Record `CNC(=O)c1ccc(Nc2cc([C@H]3CC[C@@H](OC(=O)NC4(C)CC4)C3)[nH]n2)c(C)n1` ; criterion: FS CDK1/CDK2 no lower than 70. Met?
Result: F

Ask: Record `CC(C)NC(=O)O[C@@H]1CC[C@H](c2cc(Nc3ccc(-n4cccn4)nc3)n[nH]2)C1` ; criterion: FS CDK1/CDK2 no lower than 70. Met?
Result: F

Ask: Record `CC(C)(C)NC(=O)O[C@@H]1CC[C@H](c2cc(Nc3cccnn3)n[nH]2)C1` ; criterion: FS CDK1/CDK2 no lower than 70. Met?
Result: F

Ask: Record `COc1cc(=O)n(C)cc1Nc1cc([C@H]2CC[C@@H](OC(=O)NC34CC(C3)C4)C2)[nH]n1` ; criterion: FS CDK1/CDK2 no lower than 70. Met?
Result: F

Ask: Record `CC(C)(C)NC(=O)O[C@@H]1CC[C@H](c2cc(Nc3ccccn3)n[nH]2)C1` ; criterion: FS CDK1/CDK2 no lower than 70. Met?
Result: F

Ask: Record `Cc1nccnc1Nc1cc([C@H]2CC[C@@H](OC(=O)NC3(C)COC3)C2)[nH]n1` ; criterion: FS CDK1/CDK2 no lower than 70. Met?
Result: T

###

SYSTEM UNDER TEST: Cyclin Dependent Kinase 1/Cyclin A2 (CDK1-cycA2) (Homo sapiens)
Construct: purchased ProQinase 0134-0054-1
Sequence (P06493 whole entry): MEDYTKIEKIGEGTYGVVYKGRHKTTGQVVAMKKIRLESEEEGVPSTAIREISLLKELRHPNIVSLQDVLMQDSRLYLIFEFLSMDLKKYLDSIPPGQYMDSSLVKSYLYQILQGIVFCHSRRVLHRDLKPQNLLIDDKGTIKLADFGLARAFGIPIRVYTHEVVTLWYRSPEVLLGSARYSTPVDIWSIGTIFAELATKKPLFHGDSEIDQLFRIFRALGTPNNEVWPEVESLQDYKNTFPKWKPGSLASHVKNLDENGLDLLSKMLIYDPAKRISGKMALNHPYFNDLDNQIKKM
Sequence (P20248 whole entry partner): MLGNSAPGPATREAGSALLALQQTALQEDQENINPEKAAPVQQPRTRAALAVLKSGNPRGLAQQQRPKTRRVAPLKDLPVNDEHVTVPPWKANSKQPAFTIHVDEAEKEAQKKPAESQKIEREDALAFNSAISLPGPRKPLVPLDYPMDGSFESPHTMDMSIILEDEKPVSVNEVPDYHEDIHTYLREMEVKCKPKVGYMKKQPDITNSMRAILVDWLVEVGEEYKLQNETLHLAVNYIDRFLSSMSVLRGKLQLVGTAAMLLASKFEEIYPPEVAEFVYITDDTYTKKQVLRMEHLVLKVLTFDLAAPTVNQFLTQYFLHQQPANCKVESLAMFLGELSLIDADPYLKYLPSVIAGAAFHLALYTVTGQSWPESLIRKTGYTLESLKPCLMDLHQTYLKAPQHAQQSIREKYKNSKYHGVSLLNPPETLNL
METHOD DESCRIPTION: CDK1-cycA2 TR-FRET (Lance) enzyme assay
Assay type: biochemical
TEST CONDITIONS: Table O, enzymatic assay
MEASURED METRIC: pKi
# pKi = -log10(concentration in molar units)

These solved cases illustrate the format of a correct answer.
INSERT INTO results (compound, system_under_test, measured_metric, assay_result) VALUES
  ('COCCn1nc(Nc2cc([C@H]3CC[C@@H](OC(=O)NC(C)C)C3)[nH]n2)ccc1=O [Example 2II]', 'Cyclin Dependent Kinase 1/Cyclin A2 (CDK1-cycA2) (Homo sapiens)', 'pKi', 6.96),
  ('Cc1nnccc1Nc1cc([C@H]2CC[C@@H](OC(=O)NC(C)(C)C)C2)[nH]n1 [Example 11A]', 'Cyclin Dependent Kinase 1/Cyclin A2 (CDK1-cycA2) (Homo sapiens)', 'pKi', 7.08),
  ('CC(C)(C)NC(=O)O[C@@H]1CC[C@H](c2cc(Nc3ccccn3)n[nH]2)C1 [Example 4G]', 'Cyclin Dependent Kinase 1/Cyclin A2 (CDK1-cycA2) (Homo sapiens)', 'pKi', 7.12);

Now look at this one.
Ask: For CC1(NC(=O)O[C@@H]2CC[C@H](c3cc(Nc4cccnn4)n[nH]3)C2)CNC1 [Example 3F] , write its pKi.
Result: 6.96

###

The following compounds are shown together with reported FS CDK4/CDK2 values.
SYSTEM UNDER TEST: Cyclin Dependent Kinase 2/Cyclin E1 (CDK2-cycE1) (Homo sapiens)
Construct: purchased ProQinase 0050-0055-1
METHOD DESCRIPTION: CDK2-cycE1 TR-FRET (LANCE) enzyme assay
Assay type: biochemical
TEST CONDITIONS: Table O, fold selectivity, enzymatic CDK4 Ki over CDK2 Ki
I'd appreciate a reply containing only the number, no unit.

These solved cases illustrate the format of a correct answer.
INSERT INTO assay_data (compound, assay_result) VALUES
  ('CC(C)NC(=O)O[C@@H]1CC[C@H](c2cc(Nc3ccc(-n4ccnc4)nc3)n[nH]2)C1', 23),
  ('O=C(NC12CC(C1)C2)O[C@@H]1CC[C@H](c2cc(Nc3ccc(CO)nc3)n[nH]2)C1', 97),
  ('Cc1ncccc1Nc1cc([C@H]2CC[C@@H](OC(=O)NC3CC(O)C3)C2)[nH]n1 (some centres unmarked)', 52);

Ask: For `CNC(=O)c1ccc(Nc2cc([C@H]3CC[C@@H](OC(=O)NC4(C)CC4)C3)[nH]n2)c(C)n1` , write its FS CDK4/CDK2.
Result: 42

Ask: For `CC(C)NC(=O)O[C@@H]1CC[C@H](c2cc(Nc3ccc(-n4ccnc4)cn3)n[nH]2)C1` , write its FS CDK4/CDK2.
Result: 59

Ask: For `Cc1ncc(Nc2cc([C@H]3CC[C@@H](OC(=O)NC(C)C)C3)[nH]n2)c(C)n1` , write its FS CDK4/CDK2.
Result: 74

Ask: For `CC(C)NC(=O)O[C@@H]1CC[C@H](c2cc(Nc3cc(=O)[nH]cn3)n[nH]2)C1` , write its FS CDK4/CDK2.
Result: 390

Ask: For `Cc1cc(=O)n(C)nc1Nc1cc([C@H]2CC[C@@H](OC(=O)NC(C)(C)C)C2)[nH]n1` , write its FS CDK4/CDK2.
Result: 280

Ask: For `CNC(=O)c1ncc(Nc2cc([C@H]3CC[C@@H](OC(=O)NC45CC(C4)C5)C3)[nH]n2)c(C)n1` , write its FS CDK4/CDK2.
Result: 92

Ask: For `CC(C)(C)NC(=O)O[C@@H]1CC[C@H](c2cc(Nc3cccnn3)n[nH]2)C1` , write its FS CDK4/CDK2.
Result: 13
